Where do these numbers come from? They come from patent US8269000B2.

For each of the compounds below, state its inhibition at 10 µM.
Target: human B1R (Homo sapiens)
Construct: expressed in transfected cells; host or cells: CHO K1 cells
Sequence (P46663 1-353): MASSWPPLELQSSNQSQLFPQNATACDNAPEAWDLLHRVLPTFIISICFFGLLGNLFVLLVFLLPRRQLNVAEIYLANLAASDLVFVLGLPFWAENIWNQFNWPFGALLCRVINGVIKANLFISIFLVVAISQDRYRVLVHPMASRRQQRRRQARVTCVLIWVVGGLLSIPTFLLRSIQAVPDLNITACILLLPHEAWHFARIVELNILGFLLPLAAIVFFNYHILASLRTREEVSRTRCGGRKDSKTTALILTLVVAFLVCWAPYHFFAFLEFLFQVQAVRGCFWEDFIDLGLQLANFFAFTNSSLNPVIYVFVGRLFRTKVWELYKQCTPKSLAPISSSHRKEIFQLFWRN
Assay: FLIPR Ca2+ functional study on bradykinin receptor 1 (hB1R CHO K1 cells)
Format: cell-based
Details: % inhibition human B1R at 10 μM, read-out: % inh. (hum. B1R) 10 μM
Output spec: scalar in %, unitless text.

For this compound ( COc1cc(C)c(S(=O)(=O)N(CCN(C)c2ccnc(N3CCC4(CCN(c5ccncc5)CC4)CC3)n2)C2CC2)c(C)c1 [Example I-004] ), measured inhibition at 10 µM is 85

For this compound ( COc1cc(C)c(S(=O)(=O)N(CCN(C)c2cncc(N3CCC4(CCN(c5ccncc5)CC4)CC3)n2)C2CC2)c(C)c1 [Example I-002] ), measured inhibition at 10 µM is 94

For this compound ( COc1cc(C)c(S(=O)(=O)N2CCC[C@H]2COc2nccc(N3CCN(C4CCN(C)CC4)CC3)n2)c(C)c1 [G_CC-036] ), measured inhibition at 10 µM is 75

For this compound ( COc1cc(C)c(S(=O)(=O)N(C)CCOc2nccc(N(C)CCN3CCC(c4ccccc4)(N(C)C)CC3)n2)c(C)c1 [Example G-003] ), measured inhibition at 10 µM is 101

For this compound ( COc1cc(C)c(S(=O)(=O)NC(C)(C)COc2nccc(N3CCC4(CCN(c5ccncc5)CC4)CC3)n2)c(C)c1 [Example G-024] ), measured inhibition at 10 µM is 99

For this compound ( COc1cc(C)c(S(=O)(=O)N2CCCC(Oc3nccc(N4CCC5(CCN(c6ccncc6)CC5)CC4)n3)C2)c(C)c1 (stereo not drawn) [G_CC-041] ), measured inhibition at 10 µM is 96

For this compound ( Cc1ccc(Cl)c(S(=O)(=O)N(CCOc2nccc(N3CCC4(CCN(c5ccncc5)CC4)CC3)n2)C2CC2)c1Cl [Example G-021] ), measured inhibition at 10 µM is 90

For this compound ( COc1cc(C)c(S(=O)(=O)N2CCC[C@H]2COc2nccc(N3CCC(CCN4CCCC4)CC3)n2)c(C)c1 [G_CC-016] ), measured inhibition at 10 µM is 96

For this compound ( COc1cc(C)c(S(=O)(=O)N(CCOc2nccc(N3CCC(Oc4ccncc4)CC3)n2)C2CC2)c(C)c1 [Example G-012] ), measured inhibition at 10 µM is 99

For this compound ( COc1cc(C)c(S(=O)(=O)N(CCOc2nccc(N3CCc4cc(CN5CCC5)ccc4C3)n2)C2CC2)c(C)c1 [Example G-013] ), measured inhibition at 10 µM is 92

For this compound ( COc1cc(C)c(S(=O)(=O)N2C[C@H](F)C[C@H]2COc2nccc(N3CCC4(CCN(c5ccncc5)CC4)CC3)n2)c(C)c1 [Example G-011] ), measured inhibition at 10 µM is 99

For this compound ( COc1cc(C)c(S(=O)(=O)N(CCOc2nccc(N3CCC(OCCN4CCCC4)(c4cccnc4)CC3)n2)C2CC2)c(C)c1 [Example G-007] ), measured inhibition at 10 µM is 100

For this compound ( COc1cc(C)c(S(=O)(=O)N(CCOc2nccc(NCCC3CCN(c4ccncc4)CC3)n2)C2CC2)c(C)c1 [Example G-006] ), measured inhibition at 10 µM is 99

For this compound ( COc1cc(C)c(S(=O)(=O)N2CCC[C@H]2COc2nccc(N3CCC4(CCN(Cc5ccccc5)C4)C3)n2)c(C)c1 (stereo partly drawn) [G_CC-032] ), measured inhibition at 10 µM is 86

For this compound ( COc1cc(C)c(S(=O)(=O)N(CCN(C)c2nccc(N3CCC4(CCN(c5ccncc5)CC4)CC3)n2)C2CC2)c(C)c1 [Example I-005] ), measured inhibition at 10 µM is 96

For this compound ( COc1cc(C)c(S(=O)(=O)N(CCOc2nccc(N3CCC(O)(c4cccnc4)CC3)n2)C2CC2)c(C)c1 [Example G-008] ), measured inhibition at 10 µM is 77

For this compound ( COc1cc(C)c(S(=O)(=O)N2CCCCC2COc2nccc(N3CCC(CCN4CCCC4)CC3)n2)c(C)c1 (stereo not drawn) [G_CC-003] ), measured inhibition at 10 µM is 100

For this compound ( COc1cc(C)c(S(=O)(=O)N(CCOc2ccnc(N3CCC(Oc4ccncc4)CC3)n2)C2CC2)c(C)c1 [Example H-005] ), measured inhibition at 10 µM is 98

For this compound ( COc1cc(C)c(S(=O)(=O)N2CCCCC2COc2nccc(N3CCC4(CCN(Cc5ccccc5)C4=O)CC3)n2)c(C)c1 (stereo not drawn) [G_CC-040] ), measured inhibition at 10 µM is 57

For this compound ( COc1cc(C)c(S(=O)(=O)N(C)C(COc2nccc(N3CCC4(CCN(Cc5ccc(F)cc5)C4=O)CC3)n2)c2ccccc2)c(C)c1 (stereo not drawn) [G_CC-060] ), measured inhibition at 10 µM is 17

For this compound ( COc1cc(C)c(S(=O)(=O)N2CC(Oc3nccc(N4CCC5(CCN(c6ccncc6)CC5)CC4)n3)C2)c(C)c1 [Example G-018] ), measured inhibition at 10 µM is 99

For this compound ( COc1cc(C)c(S(=O)(=O)N(C)C(COc2ccnc(N3CCC4(CCN(c5ccncc5)CC4)CC3)n2)c2ccccc2)c(C)c1 (stereo not drawn) [H_CC-037] ), measured inhibition at 10 µM is 54

For this compound ( COc1cc(C)c(S(=O)(=O)N2CCCCC2COc2nccc(N3CCN(C4CCN(C)CC4)CC3)n2)c(C)c1 (stereo not drawn) [G_CC-002] ), measured inhibition at 10 µM is 99

For this compound ( COc1cc(C)c(S(=O)(=O)N2CCCC[C@H]2COc2nccc(N3CCC4(CCN(c5ccncc5)CC4)CC3)n2)c(C)c1 [Example G-026] ), measured inhibition at 10 µM is 98

For this compound ( COc1cc(C)c(S(=O)(=O)N2CCCCC2COc2nccc(N3CCC(N4CCN(C)CC4)CC3)n2)c(C)c1 (stereo not drawn) [G_CC-011] ), measured inhibition at 10 µM is 91

For this compound ( COc1cc(C)c(S(=O)(=O)N(C)C(COc2nccc(N3CCC(Oc4ccncc4)CC3)n2)c2ccccc2)c(C)c1 (stereo not drawn) [G_CC-063] ), measured inhibition at 10 µM is 28

For this compound ( COc1cc(C)c(S(=O)(=O)N2CCC[C@H]2COc2nccc(N3CCC(O)(c4cccs4)CC3)n2)c(C)c1 [G_CC-021] ), measured inhibition at 10 µM is 36
